# System Tested: C-terminal-binding protein 1 (Homo sapiens) (UniProt Q13363)
# Test Details: qHTS for Inhibitors of the Phosphatase Activity of Eya2: Carboxyl-terminal binding protein (CtBP) Counterscreen for Cherry-picked Compounds; further: nearly all actives have a fitted effect of over 65% in size
# Experimental Setup: purified protein-protein binding, AlphaScreen, 3 h; series mostly up to 46.1 µM
Screen size: about 1,300 compounds; about 420 (32%) were called active. Another 32% or so got no clear call; they are omitted. The call rests on the fitted dose curve; in most records, active means well fitted inhibition curve with a large enough effect; inconclusive means small, poorly fitted or top-dose-only effect; inactive means no such curve, though single readings can be large or run the other way. The list shows a part of the results.
Write down the outcome that applies. Available outcomes: true for active, false for inactive

[
  {
    "Compound": "CCCC[C@@]1(C2CCCC2)Cc2cc(OCC(=O)O)c(Cl)c(Cl)c2C1=O",
    "Group Label": "false"
  },
  {
    "Compound": "COc1ccc(CCNc2nc(-c3ccccn3)cs2)cc1OC",
    "Group Label": "true"
  },
  {
    "Compound": "CC(C)(C)C(=O)[C@H]1[C@H](c2ccccc2)[C@@]2(N=C(c3ccccc3)OC2=O)C2c3ccccc3C=NN21 (stereo partly specified)",
    "Group Label": "false"
  }
]

Proceed to the following item.
Called result for `CCCCOC(=O)CCCc1ccc([N+](=O)[O-])cc1[N+](=O)[O-]`
false

---

# System Tested: C-terminal-binding protein 1 (Homo sapiens)
# Test Details: qHTS for Inhibitors of the Phosphatase Activity of Eya2: Carboxyl-terminal binding protein (CtBP) Counterscreen for Cherry-picked Compounds; further: nearly all actives have a fitted effect of over 65% in size
# Experimental Setup: purified protein-protein binding, AlphaScreen, 3 h; series mostly up to 46.1 µM
Among all 1,300 compounds or so, about 420 (32%) were called active. Inconclusive results (about 32%) are left out. Calls follow the shape of the dose curve; as a rule, active = well fitted inhibition curve with a large enough effect; inconclusive = small, poorly fitted or top-dose-only effect; inactive = no such curve, though single readings can be large or run the other way. Some of the results follow.
Write down the outcome that applies. Available outcomes: active, inactive

Called result for `Clc1ccc(-n2nnnc2-c2cnc3ccccc3c2-c2ccccc2)cc1`
inactive

---

# System Tested: C-terminal-binding protein 1 (Homo sapiens)
# Test Details: qHTS for Inhibitors of the Phosphatase Activity of Eya2: Carboxyl-terminal binding protein (CtBP) Counterscreen for Cherry-picked Compounds; further: nearly all actives have a fitted effect of over 65% in size; further: potency means the concentration at half of the fitted maximal effect
# Experimental Setup: purified protein-protein binding, AlphaScreen, 3 h; series mostly up to 46.1 µM
# Description: The Eya protein family is an essential co-activator of the Six1 transcription factor. Six1 is a developmental gene that is abnormally re-expressed in a large percentage of breast cancers. This over-expression plays a causal role in the initiation and metastatic development of breast cancers. […] A 1536 well format, fluorescence based qHTS assay was developed and used to target the phosphatase activity of Eya2 (AID 488837). […]
Screen size: about 1,300 compounds; about 420 (32%) were called active. About 32% were inconclusive and are not listed. Some of the results follow.
Recorded Metric: Potency

Guide cases for Potency, answers given:
[
  {
    "Compound": "O=C(c1cccc(S(=O)(=O)Nc2ccccc2Cl)c1)N1CCN(c2ccccc2O)CC1",
    "System Tested": "C-terminal-binding protein 1 (Homo sapiens)",
    "Potency": "15.1 µM (active)"
  },
  {
    "Compound": "Cc1ccc(NC(=O)/C=C/c2ccc3c(c2)OCO3)cc1S(=O)(=O)N1CCOCC1",
    "System Tested": "C-terminal-binding protein 1 (Homo sapiens)",
    "Potency": "6.75 µM (active)"
  },
  {
    "Compound": "Cc1cc(O)cc(O)c1/C=N/NC(=O)c1ccc2c(c1)OCCO2",
    "System Tested": "C-terminal-binding protein 1 (Homo sapiens)",
    "Potency": "8.49 µM (active)"
  },
  {
    "Compound": "CCC(=O)Nc1ccc(C(=O)COC(=O)c2nc3nccc(C)n3n2)cc1",
    "System Tested": "C-terminal-binding protein 1 (Homo sapiens)",
    "Potency": "inactive"
  },
  {
    "Compound": "COc1ccc(S(=O)(=O)N2CCOCC2)cc1C(=O)Nc1cccc(C(=O)NC2CC2)c1",
    "System Tested": "C-terminal-binding protein 1 (Homo sapiens)",
    "Potency": "15.1 µM (active)"
  },
  {
    "Compound": "COc1ccc(N=C2SC(C(=O)N3CCN(c4ccc([N+](=O)[O-])cc4)CC3)CC(=O)N2C)cc1 (stereo not given)",
    "System Tested": "C-terminal-binding protein 1 (Homo sapiens)",
    "Potency": "inactive"
  }
]

Okay, now this compound:
Give the reported Potency for `O=C(O)c1cccc(N2C(=O)c3cccc(Oc4ccc(Cl)cc4)c3C2=O)c1` (system: C-terminal-binding protein 1 (Homo sapiens)).
inactive

---

# System Tested: C-terminal-binding protein 1 (Homo sapiens)
# Test Details: qHTS for Inhibitors of the Phosphatase Activity of Eya2: Carboxyl-terminal binding protein (CtBP) Counterscreen for Cherry-picked Compounds; further: nearly all actives have a fitted effect of over 65% in size
# Experimental Setup: purified protein-protein binding, AlphaScreen, 3 h; series mostly up to 46.1 µM
In all, about 1,300 compounds went through this assay and about 420 (32%) were called active. Another 32% or so got no clear call; they are omitted. The call rests on the fitted dose curve; in most records, active means well fitted inhibition curve with a large enough effect; inconclusive means small, poorly fitted or top-dose-only effect; inactive means no such curve, though single readings can be large or run the other way. The list shows a part of the results.
Write down the outcome that applies. Available outcomes: active, inactive

The examples below pair each entry with its known result.
[
  {
    "Molecule": "CCOc1ccc(Nc2nc(N)nc(CN(C)C3CCCCC3)n2)cc1",
    "System Tested": "C-terminal-binding protein 1 (Homo sapiens)",
    "Group Label": "inactive"
  },
  {
    "Molecule": "Cn1cc(SCC(=O)Nc2ccc3c(c2)OCCO3)c2ccccc21",
    "System Tested": "C-terminal-binding protein 1 (Homo sapiens)",
    "Group Label": "inactive"
  },
  {
    "Molecule": "CCOC(=O)CNC(=O)C1CCCN(c2ncccn2)C1 (stereo not drawn)",
    "System Tested": "C-terminal-binding protein 1 (Homo sapiens)",
    "Group Label": "inactive"
  },
  {
    "Molecule": "CN(C)c1ccc(/C=C2\\C(=O)/C(=C/c3ccc(N(C)C)cc3)c3ccccc32)cc1",
    "System Tested": "C-terminal-binding protein 1 (Homo sapiens)",
    "Group Label": "active"
  },
  {
    "Molecule": "COCC(C)n1c(-c2ccc3c(c2)NC(=O)CO3)csc1=Nc1ccc(OC(F)F)cc1 (stereo not drawn)",
    "System Tested": "C-terminal-binding protein 1 (Homo sapiens)",
    "Group Label": "inactive"
  }
]

Called result for `CCOc1ccc(NC(=O)COc2cccc3cccnc23)cc1S(=O)(=O)N1CCCC1`
active

Called result for CCOC(=O)C1CCCN(C2=C(NS(=O)(=O)c3ccc(Br)cc3)C(=O)c3ccccc3C2=O)C1 (stereo not drawn)
active

Called result for CCCCC(=O)NC(c1ccco1)c1cc(Cl)c2cccnc2c1O (stereo not drawn)
active

---

# System Tested: C-terminal-binding protein 1 (Homo sapiens)
# Test Details: qHTS for Inhibitors of the Phosphatase Activity of Eya2: Carboxyl-terminal binding protein (CtBP) Counterscreen for Cherry-picked Compounds; further: nearly all actives have a fitted effect of over 65% in size
# Experimental Setup: purified protein-protein binding, AlphaScreen, 3 h; series mostly up to 46.1 µM
Out of some 1,300 compounds screened, about 420 (32%) were called active. Roughly 32% stayed inconclusive and do not appear here. Calls come from the whole dose curve; as a rule, active = well fitted inhibition curve with a large enough effect; inconclusive = small, poorly fitted or top-dose-only effect; inactive = no such curve, though single readings can be large or run the other way. The list shows a part of the results.
Write down the outcome that applies. Available outcomes: active, inactive

[
  {
    "Compound": "COc1ccccc1/C=C/C(=O)Oc1cccc2cccnc12",
    "Group Label": "active"
  },
  {
    "Compound": "OCCN(Cc1cccnc1)Cc1ccccn1",
    "Group Label": "active"
  },
  {
    "Compound": "C=CCn1cccc(C(=O)Nc2ccc(N(C)C)cc2)c1=O",
    "Group Label": "inactive"
  },
  {
    "Compound": "COc1cc(OC)c(NC(=O)CN(C)S(=O)(=O)c2ccc(-c3ccc(=O)[nH]n3)s2)cc1Cl",
    "Group Label": "active"
  }
]

Called result for CC1CCCCC1Nc1nc2ccc(Cl)cc2n2cnnc12 (configuration not stated)
inactive

Called result for CCC(C)N(C(=O)CSc1nc(-c2cccs2)nc2ccccc12)C1CCS(=O)(=O)C1 (configuration not stated)
inactive

---

# System Tested: C-terminal-binding protein 1 (Homo sapiens) (UniProt Q13363)
# Test Details: qHTS for Inhibitors of the Phosphatase Activity of Eya2: Carboxyl-terminal binding protein (CtBP) Counterscreen for Cherry-picked Compounds; further: nearly all actives have a fitted effect of over 65% in size
# Experimental Setup: purified protein-protein binding, AlphaScreen, 3 h; series mostly up to 46.1 µM
Among all 1,300 compounds or so, about 420 (32%) were called active. Roughly 32% stayed inconclusive and do not appear here. Calls come from the whole dose curve; as a rule, active = well fitted inhibition curve with a large enough effect; inconclusive = small, poorly fitted or top-dose-only effect; inactive = no such curve, though single readings can be large or run the other way. The list shows a part of the results.
Write down the outcome that applies. Available outcomes: label 1 (active), label 0 (inactive)

The examples below pair each entry with its known result.
[
  {
    "Smiles Repr": "O=C1NC(=O)/C(=C\\c2ccccc2OCc2cccc([N+](=O)[O-])c2)N1",
    "Group Label": "label 0"
  },
  {
    "Smiles Repr": "Cc1cc(NC(=O)CS(=O)(=O)c2cn(Cc3cccc(Br)c3)c3ccccc23)no1",
    "Group Label": "label 0"
  },
  {
    "Smiles Repr": "CC(=O)Oc1cccc(C(=O)Nc2cccc(C(=O)Nc3ccccc3C(=O)O)c2)c1",
    "Group Label": "label 1"
  },
  {
    "Smiles Repr": "COc1cccc(-c2nnc(SCC(=O)Nc3cc(C)on3)o2)c1",
    "Group Label": "label 1"
  },
  {
    "Smiles Repr": "COc1cc(NC(=O)c2ccc(S(=O)(=O)N(C)c3ccccc3)cc2)cc(OC)c1",
    "Group Label": "label 0"
  }
]

Called result for `O=C1/C(=C\c2cccc([N+](=O)[O-])c2O)SC(=S)N1Cc1ccccc1`
label 1

Called result for `CCc1nc2ccc(C(=O)NCCCN(C)C)cn2c1N(C)Cc1ccc(OC)cc1`
label 0
